Assay: in vitro
Details: human, HEK293 cells (Flp-In-293), HEK293 viability, Dose 25 µM

compound	viability at 2 days, 25 µM, %
Cc1ccc(OCCn2cnc3ccccc32)c(C)c1	100
CCCOc1ccc(Cn2cnc3ccccc32)cc1	100
Cc1ccc(OCCn2cnc3ccccc32)cc1	96.2
Cc1nc2ccccc2n1Cc1ccc(Cl)c(Cl)c1	88.9
CC(C)Oc1cccc(OCCn2cnc3ccccc32)c1	97.3
FC(F)(F)c1cccc(OCCCCn2cnc3ccccc32)c1	61.3
Nc1nc2ccccc2n1CCOc1ccc(Br)cc1	11
Brc1ccccc1OCCCCn1cnc2ccccc21	82.8
Cc1ccccc1OCCCCn1cnc2ccccc21	93.2
Clc1ccc(SCCCCn2cnc3ccccc32)cc1	96.8
Nc1nc2ccccc2n1Cc1ccc(Cl)cc1	94.5
Cc1cccc(OCCn2c(C)nc3ccccc32)c1	100
Clc1ccc(Cn2cnc3ccccc32)c(Cl)c1	100
Cc1ccccc1OCCCn1c(C)nc2ccccc21	73.1
Clc1ccc(Cn2cnc3ccccc32)cc1Cl	60.7
Cc1ccc(CSCc2nc3ccccc3[nH]2)cc1	91.3
CCc1cc(OCCn2cnc3ccccc32)ccc1Cl	81.1
Cc1ccc(C(C)C)c(OCC(O)Cn2cnc3ccccc32)c1 (stereo not drawn)	32.4
Cc1ccc(SCCCn2cnc3ccccc32)cc1	97.6
Cc1nc2ccccc2n1CCOc1ccccc1	100
Cc1ccc(SCCCCn2cnc3ccccc32)cc1	100
Cc1nc2ccccc2n1CCOc1ccccc1Cl	100
Clc1ccccc1OCCCCn1cnc2ccccc21	73.8
Clc1ccc(OCCn2cnc3ccccc32)c(Cl)c1	100
